pIC50: −log10 of the molar value.
Below are pIC50 values for Tyrosine-protein kinase JAK2 (Homo sapiens) collected from several publications.
Assay metric: pIC50

[
  {
    "Compound": "Cc1ccc(Cl)cc1-c1[nH]c(-c2ccnc(N)n2)cc1C(=O)NCCF",
    "Quantitative result": 6.94
  },
  {
    "Compound": "CS(=O)(=O)N1CCC[C@@H](n2c(=O)[nH]c3cnc4[nH]ccc4c32)C1",
    "Quantitative result": 7.09
  },
  {
    "Compound": "CC(C)c1ccc(Cl)cc1-c1[nH]c(-c2ccnc(N)n2)cc1C(N)=O",
    "Quantitative result": 6.82
  },
  {
    "Compound": "O=c1[nH]c2cnc(-n3cnc4ccccc43)nc2n1C1CCOc2ccc(F)cc21 (racemic)",
    "Quantitative result": 7.08
  }
]
